- Protocol summary: chemical genetic growth profiling, strain panel (AID 1159580);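 further: tested at 20 µM; growth read once vehicle control cultures reached saturation at 30 °C; 1 = growth at the plate median or of vehicle wells; lower values mean less growth of the strain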
- Measurement context: S. cerevisiae deletion strains, growth OD, locus YML016C, strain PPZ1, hits give low values
In all, about 5,500 compounds went through this assay and about 2,000 (36%) were called active. About 18% were inconclusive and are not listed. This is one part of the list.
Quick list: normalized growth per entry.
Give the figure by itself; no unit, no explanation.

CC(C)=CCCC1(C)C=Cc2c(O)c3c(c(CC=C(C)C)c2O1)OC12C(=CC4CC1C(C)(C)OC2(C/C=C(/C)C(=O)O)C4=O)C3=O (stereo not drawn): 0.963
C[C@@H]1C(=O)O[C@H]2[C@H]1CC[C@@]1(C)C=CC(=O)[C@@]3(C)O[C@@]213: 1.01
Cc1cc(C(C)(C)C)c(O)c(C(C)(C)C)c1: 0.997
CC(=O)O[C@@H]1CC[C@@]2(C)C(CC[C@]3(C)C2CC=C2C4CC(C)(C)CC[C@]4(C(=O)O)CC[C@]23C)C1(C)C (stereo partly drawn): 0.99

Need normalized growth, item Nc1ccccc1C(=O)CC(N)C(=O)O (stereo not drawn)
0.989

Need normalized growth, item COC(=O)Nc1nc2ccc(C(=O)c3ccccc3)cc2[nH]1
1.01

* * *

- Protocol summary: chemical genetic growth profiling, strain panel (AID 1159580);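 further: tested at 20 µM; growth read once vehicle control cultures reached saturation at 30 °C; 1 = growth at the plate median or of vehicle wells; lower values mean less growth of the strain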
- Measurement context: S. cerevisiae deletion strains, growth OD, locus YLR357W, strain rsc2, hits give low values
Out of some 5,500 compounds screened, about 2,000 (36%) were called active. Another 18% or so got no clear call; they are omitted. Some of the results follow.
Quick list: normalized growth per entry.
Give the figure by itself; no unit, no explanation.

Below are worked cases with known answers.
CCCOc1ccccc1-c1nc2n[nH]nc2c(=O)[nH]1: 1.01
C[C@@H]1OC(O[C@H]2C(O[C@H]3CC[C@@]4(C)C(CC[C@]5(C)C4CC=C4C6CC(C)(C)CC[C@]6(C(=O)O)CC[C@]45C)[C@]3(C)CO)OC[C@H](O)[C@@H]2O)[C@H](O)[C@H](O)[C@H]1O (stereo not given in full): 0.11
CC(C)=CCCC1(C)C=Cc2c(O)c3c(c(CC=C(C)C)c2O1)OC12C(=CCCC1C(C)(C)O[C@@]2(C/C=C(\C)C(=O)O)C(=O)O)C3=O (stereo not given in full): 1.01
CC(=O)O[C@H]1CC[C@@]2(C)C(CC[C@]3(C)C2CC=C2C4CC(C)(C)CC[C@]4(C)CC[C@]23C)C1(C)C (stereo not given in full): 0.973
FC(F)(F)c1ccccc1-n1ccnc1: 1.02

# context switch: different compound, same normalized growth
Need normalized growth, item CCC(C)C(NC)C(=O)O (stereo not given)
1.02

* * *

Quick list: normalized growth per entry.
- Protocol summary: chemical genetic growth profiling, strain panel (AID 1159580);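 further: tested at 20 µM; growth read once vehicle control cultures reached saturation at 30 °C; 1 = growth at the plate median or of vehicle wells; lower values mean less growth of the strain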
- Measurement context: S. cerevisiae deletion strains, growth OD, locus YKL190W, strain CNB1, hits give low values
The campaign covered roughly 5,500 compounds. About 2,000 (36%) were called active. Not shown: some 18% with an inconclusive outcome. The list shows a part of the results.
Give the figure by itself; no unit, no explanation.

Below are worked cases with known answers.
O=C(COc1ccc2c(c1)OCO2)N1CCN(c2ncc(C(F)(F)F)cc2Cl)CC1: 0.963
O=C(Nc1ccc(Br)cc1Cl)C(Cl)(Cl)Cl: 0.941
C#C[C@]1(O)CCC2C3CCC4=C(CCC(=O)C4)C3CC[C@@]21C (stereo partly specified): 1.04
C#C[C@]1(O)CCC2C3CCC4=CC(=O)CC[C@@H]4C3CC[C@@]21C (stereo partly specified): 0.977

Need normalized growth, item O=C(COc1ccc(Cl)cc1)N1CCN(Cc2ccc3c(c2)OCO3)CC1
0.976

Need normalized growth, item Cc1noc(C)c1C(=O)N1CCN(c2ncc(C(F)(F)F)cc2Cl)CC1
1
